Quick record of pKi values for Voltage-gated inwardly rectifying potassium channel KCNH2 (Homo sapiens, UniProt Q12809).
Note on pKi: it is the negative log10 of concentration, concentration in mol/L.

> print(dat)
                                   compound  property.label  numeric.readout
1  CC(C)(C)Cc1c[nH]c(CC(C)(O)c2ccc(-c3ccc(F)cn3)cc2)n1 (stereo not drawn)             pKi             5.38

Here CC(C)(C)Cc1c[nH]c(C(C)(O)Cc2ccc(-c3ccc(F)cn3)cc2)n1 (stereo not drawn) was tested on Voltage-gated inwardly rectifying potassium channel KCNH2 (Homo sapiens, UniProt Q12809), and its pKi came to 5.23

----------
molecular target: Bombesin receptor subtype-3 (Mus musculus); experiment: Agonist activity at mouse BRS-3 expressed in HEK293AEQ cells assessed as induction of intracellular calcium mobilization by aequorin bioluminescence assay
Sequence (O54798 whole entry): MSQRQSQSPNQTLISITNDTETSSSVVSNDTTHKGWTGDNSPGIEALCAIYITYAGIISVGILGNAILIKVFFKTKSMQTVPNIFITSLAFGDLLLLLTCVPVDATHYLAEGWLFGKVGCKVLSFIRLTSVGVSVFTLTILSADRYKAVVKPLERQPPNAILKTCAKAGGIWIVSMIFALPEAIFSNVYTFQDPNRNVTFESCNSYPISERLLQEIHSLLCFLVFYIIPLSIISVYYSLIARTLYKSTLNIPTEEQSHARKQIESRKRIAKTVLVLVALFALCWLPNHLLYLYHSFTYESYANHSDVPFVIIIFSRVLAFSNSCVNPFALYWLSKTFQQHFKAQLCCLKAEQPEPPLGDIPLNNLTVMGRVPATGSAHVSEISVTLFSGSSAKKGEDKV
property label: EC50
A complete answer gives the number followed by the unit.

Recorded result, `O[C@@](Cc1nc(CC2(C(F)(F)F)CC2)c[nH]1)(c1ccc(-n2cccn2)cc1)C(F)(F)F` , EC50: 21 nM

----------
test: Plasma clearance in rat at 1 mg/kg, iv; type: ADME, organism-based; set-up: dose 1 mg/kg, route intravenous
Please use fulfilled for clearance under 30 mL/min/kg and not fulfilled for everything else, ties included.

> print(dat)
                                   compound  assigned.category
1  CC(C)(C)Cc1c[nH]c(CC(C)(O)c2ccc(-c3ccc(F)cn3)cc2)n1 (stereo unspecified)          fulfilled
2  CC(C)(C)Cc1c[nH]c(CC(C)(O)c2ccc(-n3cccn3)cc2)n1 (stereo unspecified)      not fulfilled
3  CC(O)(Cc1nc(CC2(C(F)(F)F)CC2)c[nH]1)c1ccc(-n2cccn2)cc1 (stereo unspecified)      not fulfilled
4  CCC(C)(C)Cc1cnc(CCc2ccc(-c3ccc(F)cn3)cc2)[nH]1          fulfilled
5  CC(C)(C)Cc1c[nH]c(C(C)(O)Cc2ccc(-c3ccc(F)cn3)cc2)n1 (stereo unspecified)          fulfilled

Hi there! Is clearance for `O[C@@](Cc1nc(CC2(C(F)(F)F)CC2)c[nH]1)(c1ccc(-n2cccn2)cc1)C(F)(F)F` below 30 mL/min/kg, do you know? fulfilled
